Structures can show the parent of a compound that is named as a salt.
property: melting point (°C)

molecule	unit.string	melting point
COc1cc(OC)cc(N(Cc2ncccn2)c2ccc3ncc(-c4cnn(C)c4)nc3c2)c1 [Compound 812]	°C	170
C#CCN(c1cc(OC)cc(OC)c1)c1ccc2ncc(-c3cnn(C)c3)nc2c1 [Compound 38]	°C	168
COCCNC(=O)C(C)(C)n1cc(-c2cnc3ccc(N(CC4CC4)c4cc(OC)cc(OC)c4)cc3n2)cn1	°C	104.64
COc1cc(OC)cc(N(CCN(Cc2ccc(N)cc2)C(C)C)c2ccc3ncc(-c4cnn(C)c4)nc3c2)c1 [Compound 658]	°C	152
COc1cc(OC)cc(N(CCCN2CCCC2)c2ccc3ncc(-c4cnn(CCS(C)(=O)=O)c4)nc3c2)c1 [Compound 295]	°C	155.31
COc1cc(OC)cc(N(CCNCC(F)F)c2ccc3ncc(-c4cnn(C)c4)nc3c2)c1 [Compound 513]	°C	160.65
COc1cc(OC)cc(N(CC2CC2)c2ccc3ncc(-c4cnn(CC(=O)N(C)C)c4)nc3c2)c1 [Compound 212]	°C	145.81

(1) COc1cc(OC)cc(N(CCCN2CCC[C@H]2CC#N)c2ccc3ncc(-c4cnn(C)c4)nc3c2)c1 (as salt: HCl)
(2) COc1cc(OC)cc(N(CC2OCCO2)c2ccc3ncc(-c4cnn(C)c4)nc3c2)c1
Q: Quick check, higher melting point between 1 and 2 ? Please respond with the label that marks your chosen entry.
Result: 2

* * *

Counter-ions that a name gives are not always drawn.
property: melting point (°C)

Solved cases below.
compound	melting point (°C)
COc1cc(OC)cc(N(CCN2CCN(C3CCN(C(C)=O)CC3)CC2)c2ccc3ncc(-c4cnn(C)c4)nc3c2)c1 [Compound 583]	136.49
COCC(O)CN(c1cc(OC)cc(OC)c1)c1ccc2ncc(-c3cnn(C(C)C)c3)nc2c1 (single isomer, unassigned) (as salt: HCl)	95
COc1cc(OC)cc(N(CC2CNCCN2)c2ccc3ncc(-c4cnn(C)c4)nc3c2)c1 (stereo not drawn)	167
COc1cc(OC)cc(N(CC2CC2)c2ccc3ncc(-c4cnn(C(C)(C)C(=O)NCCO)c4)nc3c2)c1	149.27
COc1cc(OC)cc(N(CCCNCC(F)(F)F)c2ccc3ncc(-c4cnn(CCCN)c4)nc3c2)c1	175
Cn1cc(-c2ccc3ncc(N(CC4CC4)c4cccc(OC(F)F)c4)nc3c2)cn1 [Compound 209]	166.2
COc1ccc(N(CC2CC2)c2ccc3ncc(-c4cnn(C)c4)nc3c2)cc1OC	190
COc1cc(OC)cc(N(CCN2CCC(F)(F)CC2)c2ccc3ncc(-c4cnn(C)c4)nc3c2)c1 [Compound 431]	147.77
COc1cc(OC)cc(N(CC#Cc2ccc(C)cn2)c2ccc3ncc(-c4cnn(C)c4)nc3c2)c1	155
COc1cc(OC)cc(N(C[C@H](O)CO)c2ccc3ncc(-c4cnn(C)c4)nc3c2)c1 (single isomer, unassigned) [Compound 98]	186.98

(1) COc1cc(OC)cc(N(CCN2C(=O)c3ccccc3C2=O)c2ccc3ncc(-c4cnn(C)c4)nc3c2)c1
(2) COc1cc(OC)cc(N(CCCN2CCCC2=O)c2ccc3ncc(-c4cnn(C)c4)nc3c2)c1 [Compound 132]
Q: Lowest melting point? choose 1 or 2 Please respond with the label that marks your chosen entry.
Result: 2

(1) COc1cc(OC)cc(N(Cc2ccccc2)c2ccc3ncc(-c4cnn(C)c4)nc3c2)c1
(2) COc1cc(OC)cc(N(CC(=O)Nc2nccc(OC)n2)c2ccc3ncc(-c4cnn(C)c4)nc3c2)c1
Q: Quick check, higher melting point between 1 and 2 ? Please respond with the label that marks your chosen entry.
Result: 2
(2: 241 °C, 1: 133.89 °C)

(A) COc1cc(OC)cc(N(CC2OCCN(C(C)C)C2=O)c2ccc3ncc(-c4cnn(C)c4)nc3c2)c1 (stereo not drawn)
(B) COc1cc(OC)cc(N(CCCNCC(F)F)c2ccc3ncc(-c4cnn(C)c4)nc3c2)c1 [Compound 717]
Q: Lowest melting point? choose A or B Please respond with the label that marks your chosen entry.
Result: B
(B: 125 °C, A: 187 °C)

* * *

property: melting point (°C)

(I) COc1cc(OC)cc(N(CC2CC2)c2ccc3ncc(-c4cnn(CCN)c4)nc3c2)c1
(II) COc1cc(OC)cc(N(CC2CC2)c2ccc3ncc(-c4cnn(S(C)(=O)=O)c4)nc3c2)c1
Q: Lowest melting point? choose I or II Please respond with the label that marks your chosen entry.
Result: I
(I: 130 °C, II: 207.88 °C)

* * *

property: melting point (°C)

molecule	unit.string	melting point
[2H]C([2H])([2H])Oc1cc(OC([2H])([2H])[2H])cc(N(c2ccc3ncc(-c4cnn(C)c4)nc3c2)C([2H])([2H])C([2H])([2H])O)c1	°C	149
COc1cc(OC)cc(N(CC2CNC(=O)O2)c2ccc3ncc(-c4cnn(C)c4)nc3c2)c1 (centres unmarked)	°C	157
COc1cc(OC)cc(N(CC#Cc2nccc(OC)n2)c2ccc3ncc(-c4cnn(C)c4)nc3c2)c1	°C	175
COc1cc(OC)cc(N(CC#CC2(O)CCN(C(=O)OC(C)(C)C)CC2)c2ccc3ncc(-c4cnn(C)c4)nc3c2)c1 [Compound 914]	°C	166
COc1cc(OC)cc(N(CC(O)CN2CCC(F)(F)C2)c2ccc3ncc(-c4cnn(C)c4)nc3c2)c1 (centres unmarked) [Compound 374]	°C	206.48

* * *

property: melting point (°C)

Solved cases below.
compound	melting point (°C)
COc1cc(C#N)cc(N(CC2CC2)c2ccc3ncc(-c4cnn(C)c4)nc3c2)c1	143
COc1cc(F)cc(N(CCO)c2ccc3ncc(-c4cnn(CCO)c4)nc3c2)c1	139
COc1cc(OC)cc(N(CC(O)C(F)(F)F)c2ccc3ncc(-c4cnn(C)c4)nc3c2)c1 (single isomer, unassigned) [Compound 148]	149.13

(P) COc1cc(OC)cc(N(CC#CC2(O)CCNCC2)c2ccc3ncc(-c4cnn(C)c4)nc3c2)c1
(Q) COc1cc(OC)cc(N(CC2CC2)c2ccc3ncc(-c4cnn(CC(C)C)c4)nc3c2)c1
Q: Lowest melting point? choose P or Q Please respond with the label that marks your chosen entry.
Result: Q
(Q: 110 °C, P: 167 °C)

* * *

property: melting point (°C)

compound	melting point (°C)
COc1cc(OC)cc(N(CC2CNCCO2)c2ccc3ncc(-c4cnn(C)c4)nc3c2)c1 (centres unmarked)	149
COc1cc(OC)cc(N(CC(=O)NCCO)c2ccc3ncc(-c4cnn(C)c4)nc3c2)c1	201.43
COc1cc(OC)cc(N(CCNC(C)C)c2ccc3ncc(-c4cnn(CCC#N)c4)nc3c2)c1	127
COc1cc(OC)cc(N(CC(O)CN2CCOCC2)c2ccc3ncc(-c4cnn(C)c4)nc3c2)c1 (centres unmarked)	130.63
[2H]C([2H])([2H])Oc1cc(OC([2H])([2H])[2H])cc(N(CC#Cc2ccncc2)c2ccc3ncc(-c4cnn(C(C)C)c4)nc3c2)c1	146
COc1cc(OC)cc(N(CCN(C)C(C)C)c2ccc3ncc(-c4cnn(C)c4)nc3c2)c1	126
COc1cc(OC)cc(N(Cc2csc(C)n2)c2ccc3ncc(-c4cnn(C)c4)nc3c2)c1	168.45
COc1cc(F)cc(N(CC2CC2)c2ccc3ncc(-c4cnn(C)c4)nc3c2)c1	142
